molecular target: KRas G12C (Homo sapiens, UniProt P01116, G12C); construct: Biotinylated KRas (corresponding to amino acids 1-169, produced at Accelegan Inc.); biotin (biotinylated); purchased Accelegan Inc; test: KRas binding assay, TR-FRET displacement of Cy5 labelled tracer; conditions: 60-minute incubation at room temperature, 1% DMSO, pH 7.5
Sequence (P01116 1-169 isoform P01116-2 G12C): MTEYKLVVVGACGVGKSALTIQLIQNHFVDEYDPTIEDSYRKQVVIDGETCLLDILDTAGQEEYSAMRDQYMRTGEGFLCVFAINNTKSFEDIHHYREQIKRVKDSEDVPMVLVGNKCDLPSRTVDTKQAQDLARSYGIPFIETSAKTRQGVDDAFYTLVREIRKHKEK
Observation type: IC50 (nM)

[[record]]
compound = "N#Cc1c(N)sc2c(F)ccc(-c3c(Cl)cc4c(N5CCC(C(=O)Oc6ccc(Cl)cc6)CC5)nc(OC[C@@]56CCCN5C[C@H](F)C6)nc4c3F)c12"
observation_type = "IC50"
value_qualifier = "="
numeric_readout = 16

[[record]]
compound = "CCc1c(F)ccc2cc(O)cc(-c3ncc4c(NCC5CC(C(=O)N(C)C(C)=O)C5)nc(OC[C@@]56CCCN5C[C@H](F)C6)nc4c3F)c12 (stereo partly shown)"
observation_type = "IC50"
value_qualifier = "="
numeric_readout = 17

[[record]]
compound = "CCc1c(F)ccc2cc(O)cc(N3CCc4c(nc(OC[C@@]56CCCN5C[C@H](F)C6)nc4N(C)CCC(=O)n4ccc(C)n4)C3)c12"
observation_type = "IC50"
value_qualifier = "="
numeric_readout = 40

[[record]]
compound = "N#Cc1c(N)sc2c(F)ccc(-c3c(Cl)cc4c(N5CCC(C(=O)Oc6cccc(F)c6)CC5)nc(OC[C@@]56CCCN5C[C@H](F)C6)nc4c3F)c12"
observation_type = "IC50"
value_qualifier = "="
numeric_readout = 12

[[record]]
compound = "CCc1c(F)ccc2cc(O)cc(-c3ncc4c(N(C)CCCC(=O)n5ccc(C)n5)nc(OC[C@@]56CCCN5C[C@H](F)C6)nc4c3F)c12"
observation_type = "IC50"
value_qualifier = "<"
numeric_readout = 2

[[record]]
compound = "COc1ccn(C(=O)C2CCCN(c3nc(OC[C@@]45CCCN4C[C@H](F)C5)nc4c(F)c(-c5ccc(F)c6sc(N)c(C#N)c56)c(Cl)cc34)CC2)n1 (stereo partly shown)"
observation_type = "IC50"
value_qualifier = "="
numeric_readout = 11

[[record]]
compound = "N#Cc1c(N)sc2c(F)ccc(-c3c(Cl)cc4c(N5CCC(C(=O)Oc6ccccc6F)CC5)nc(OC[C@@]56CCCN5C[C@H](F)C6)nc4c3F)c12"
observation_type = "IC50"
value_qualifier = "="
numeric_readout = 9

[[record]]
compound = "CCc1c(F)ccc2cc(O)cc(-c3ncc4c(N5C[C@H]6CC(C(=O)n7ccc(C)n7)C[C@@H]6C5)nc(OC[C@@]56CCCN5C[C@H](F)C6)nc4c3F)c12"
observation_type = "IC50"
value_qualifier = "="
numeric_readout = 4120

[[record]]
compound = "CCc1c(F)ccc2cc(O)cc(-c3ncc4c(N5C[C@H]6C[C@H](C(=O)n7ccc(C)n7)[C@H]6C5)nc(OC[C@@]56CCCN5C[C@H](F)C6)nc4c3F)c12"
observation_type = "IC50"
value_qualifier = "="
numeric_readout = 86

[[record]]
compound = "CCc1c(F)ccc2cc(O)cc(-c3ncc4c(N5CCN(C(=O)n6cccn6)CC5)nc(OC[C@@]56CCCN5C[C@H](F)C6)nc4c3F)c12"
observation_type = "IC50"
value_qualifier = "="
numeric_readout = 76

[[record]]
compound = "CCc1c(F)ccc2cc(O)cc(-c3ncc4c(N5CCC(C(=O)N(C)C(C)=O)CC5)nc(OC[C@@]56CCCN5C[C@H](F)C6)nc4c3F)c12"
observation_type = "IC50"
value_qualifier = "="
numeric_readout = 204

[[record]]
compound = "CCc1c(F)ccc2cc(O)cc(N3CCc4c(nc(OC[C@@]56CCCN5C[C@H](F)C6)nc4NCCC(=O)n4ccc(C)n4)C3)c12"
observation_type = "IC50"
value_qualifier = "="
numeric_readout = 13

[[record]]
compound = "CC(=O)N(C)C(=O)[C@H]1CCCN(c2nc(OC[C@@]34CCCN3C[C@H](F)C4)nc3c(F)c(-c4ccc(F)c5sc(N)c(C#N)c45)c(Cl)cc23)CC1 (atropisomer, axis not shown; (aS))"
observation_type = "IC50"
value_qualifier = "="
numeric_readout = 5

[[record]]
compound = "CCc1c(F)ccc2cc(O)cc(-c3ncc4c(N5CCC(OC)(C(=O)n6ccc(C)n6)CC5)nc(OC[C@@]56CCCN5C[C@H](F)C6)nc4c3F)c12"
observation_type = "IC50"
value_qualifier = "="
numeric_readout = 116

[[record]]
compound = "CCc1c(F)ccc2cc(O)cc(-c3ncc4c(N5CC[C@H]6[C@@H](C5)[C@H]6C(=O)N(C)C(C)=O)nc(OC[C@@]56CCCN5C[C@H](F)C6)nc4c3F)c12"
observation_type = "IC50"
value_qualifier = "="
numeric_readout = 58

[[record]]
compound = "CCc1c(F)ccc2cc(O)cc(-c3ncc4c(N5C[C@@H](C)N(C(=O)n6ccc(C)n6)[C@H](C)C5)nc(OC[C@@]56CCCN5C[C@H](F)C6)nc4c3F)c12"
observation_type = "IC50"
value_qualifier = "="
numeric_readout = 3450

[[record]]
compound = "CCc1c(F)ccc2cc(O)cc(-c3ncc4c(N5CCC(C(=O)n6nc(C)cc6C)CC5)nc(OC[C@@]56CCCN5C[C@H](F)C6)nc4c3F)c12"
observation_type = "IC50"
value_qualifier = "="
numeric_readout = 578

[[record]]
compound = "COCC(C)OC(=O)C1CCN(c2nc(OC[C@@]34CCCN3C[C@H](F)C4)nc3c(F)c(-c4ccc(F)c5sc(N)c(C#N)c45)c(Cl)cc23)CC1 (stereo partly shown)"
observation_type = "IC50"
value_qualifier = "="
numeric_readout = 66

[[record]]
compound = "CCc1c(F)ccc2cc(O)cc(-c3ncc4c(N5C[C@@H]6C[C@H](C(=O)n7ccc(C)n7)[C@@H]6C5)nc(OC[C@@]56CCCN5C[C@H](F)C6)nc4c3F)c12"
observation_type = "IC50"
value_qualifier = "="
numeric_readout = 61

[[record]]
compound = "O=C(Oc1c(F)cccc1F)[C@H]1[C@@H]2C[C@H]1CN(c1nc(OCC34CCCN3CCC4)nc3c(F)c(-c4cccc5cccc(F)c45)ncc13)C2"
observation_type = "IC50"
value_qualifier = "="
numeric_readout = 10600

[[record]]
compound = "COC(=O)C1CCN(c2nc(OC[C@@]34CCCN3C[C@H](F)C4)nc3c(F)c(-c4ccc(F)c5sc(N)c(C#N)c45)c(Cl)cc23)CC1"
observation_type = "IC50"
value_qualifier = "="
numeric_readout = 11

[[record]]
compound = "CCc1c(F)ccc2cc(O)cc(-c3ncc4c(N5CCC(C(=O)n6nc(C)c(C)c6C)CC5)nc(OC[C@@]56CCCN5C[C@H](F)C6)nc4c3F)c12"
observation_type = "IC50"
value_qualifier = "="
numeric_readout = 888

